Target: UGT1A6 (Homo sapiens)
Sequence (P19224 27-532): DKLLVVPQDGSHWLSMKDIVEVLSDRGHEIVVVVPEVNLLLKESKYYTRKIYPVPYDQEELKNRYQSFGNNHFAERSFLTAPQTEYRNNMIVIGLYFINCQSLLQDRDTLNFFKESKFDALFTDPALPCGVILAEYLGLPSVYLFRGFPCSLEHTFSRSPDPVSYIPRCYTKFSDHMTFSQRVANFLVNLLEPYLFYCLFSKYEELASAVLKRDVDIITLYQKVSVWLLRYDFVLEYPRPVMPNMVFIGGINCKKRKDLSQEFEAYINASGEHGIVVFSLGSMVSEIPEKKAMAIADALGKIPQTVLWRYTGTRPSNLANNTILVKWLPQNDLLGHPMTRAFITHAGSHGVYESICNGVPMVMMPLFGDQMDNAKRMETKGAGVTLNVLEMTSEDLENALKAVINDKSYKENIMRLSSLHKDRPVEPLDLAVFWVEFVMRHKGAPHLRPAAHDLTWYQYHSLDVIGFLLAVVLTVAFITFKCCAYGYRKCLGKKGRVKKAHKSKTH
Experiment: UGT1A6 inhibition in HLM, serotonin glucuronidation
Format: in vitro ADME
Settings: Precise IC50, confirmatory experiment; HLM; serotonin; mean ± SE
pIC50: −log10 of the molar value.
MEASUREMENT_NAME: pIC50

INPUT_SMILES: COc1cc(/C=C/c2ccc(O)cc2)cc(OC)c1
MEASUREMENT_NAME: pIC50
MEASURED_NUMBER: 4.82

###

Test system: UGT1A8/10
Experiment: UGT1A8/10 inhibition in HIM, mycophenolic acid glucuronidation
Format: in vitro ADME, human
Settings: human, human intestinal microsomes, pH 7.4, probe mycophenolic acid (70 μM)
MEASUREMENT_NAME: IC50 at 30 min (µM)

COMPOUND: COc1cc(/C=C/c2ccc(O)cc2)cc(OC)c1 [pterostilbene]
MEASURED_NUMBER: 92.7

###

Molecular target: UniProtKB P10632
Assay: CYP2C8 inhibition in pooled HLM, amodiaquine to desethylamodiaquine
Type: in vitro ADME
Conditions: Rough IC50, initial screening; pooled HLM; amodiaquine; desethylamodiaquine formation; mean ± standard error

INPUT_SMILES: COc1cc(/C=C/c2ccc(O)cc2)cc(OC)c1
MEASURED_ON: UniProtKB P10632
IC50: 26.9 µM

###

Target chain: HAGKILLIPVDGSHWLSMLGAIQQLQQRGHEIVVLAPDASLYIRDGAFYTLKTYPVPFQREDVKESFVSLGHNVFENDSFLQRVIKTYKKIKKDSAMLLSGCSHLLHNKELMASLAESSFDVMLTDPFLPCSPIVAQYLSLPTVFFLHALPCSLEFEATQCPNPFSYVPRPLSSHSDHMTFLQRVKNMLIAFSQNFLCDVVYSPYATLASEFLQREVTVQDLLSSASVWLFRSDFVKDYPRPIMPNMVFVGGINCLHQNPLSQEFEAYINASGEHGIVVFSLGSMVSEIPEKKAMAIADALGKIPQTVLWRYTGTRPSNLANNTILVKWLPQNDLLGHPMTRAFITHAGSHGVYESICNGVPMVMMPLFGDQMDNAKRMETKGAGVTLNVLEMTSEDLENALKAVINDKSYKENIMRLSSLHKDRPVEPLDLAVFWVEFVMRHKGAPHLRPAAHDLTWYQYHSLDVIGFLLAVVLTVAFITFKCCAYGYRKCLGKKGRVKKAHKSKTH
pIC50: −log10 of the molar value.
MEASUREMENT_NAME: pIC50

COMPOUND: COc1cc(/C=C/c2ccc(O)cc2)cc(OC)c1 [pterostilbene]
RESULT: < 3.30

###

Biological target: CYP2C8 (Homo sapiens)
Assay: CYP2C8 inhibition in pooled HLM, amodiaquine to desethylamodiaquine
Type: in vitro ADME
Conditions: Precise IC50, confirmatory experiment; HLM; amodiaquine; mean ± SE
pIC50: −log10 of the molar value.

INPUT_SMILES: COc1cc(/C=C/c2ccc(O)cc2)cc(OC)c1
pIC50: 5.51

###

Molecular target: CYP2C8 (Homo sapiens, UniProt P10632)
Sequence (P10632 whole entry): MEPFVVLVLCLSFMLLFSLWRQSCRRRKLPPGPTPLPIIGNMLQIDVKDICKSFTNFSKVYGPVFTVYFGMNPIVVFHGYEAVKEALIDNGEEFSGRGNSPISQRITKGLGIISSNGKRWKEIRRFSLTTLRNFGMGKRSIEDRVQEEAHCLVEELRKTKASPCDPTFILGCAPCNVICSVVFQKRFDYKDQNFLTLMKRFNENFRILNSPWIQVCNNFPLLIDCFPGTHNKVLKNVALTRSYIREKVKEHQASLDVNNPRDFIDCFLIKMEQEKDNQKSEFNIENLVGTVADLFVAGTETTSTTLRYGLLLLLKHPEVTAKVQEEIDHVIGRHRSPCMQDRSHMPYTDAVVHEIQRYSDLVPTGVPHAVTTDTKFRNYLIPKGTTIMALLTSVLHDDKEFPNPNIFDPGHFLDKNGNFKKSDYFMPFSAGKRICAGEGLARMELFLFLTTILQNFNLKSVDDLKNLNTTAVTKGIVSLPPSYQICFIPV
Test: CYP2C8 inhibition in pooled HLM, pioglitazone to hydroxypioglitazone
Assay type: in vitro ADME

COMPOUND: COc1cc(/C=C/c2ccc(O)cc2)cc(OC)c1 [pterostilbene]
VALUE_UNITS: µM
IC50: 17.9

###

Protein target, amino acids: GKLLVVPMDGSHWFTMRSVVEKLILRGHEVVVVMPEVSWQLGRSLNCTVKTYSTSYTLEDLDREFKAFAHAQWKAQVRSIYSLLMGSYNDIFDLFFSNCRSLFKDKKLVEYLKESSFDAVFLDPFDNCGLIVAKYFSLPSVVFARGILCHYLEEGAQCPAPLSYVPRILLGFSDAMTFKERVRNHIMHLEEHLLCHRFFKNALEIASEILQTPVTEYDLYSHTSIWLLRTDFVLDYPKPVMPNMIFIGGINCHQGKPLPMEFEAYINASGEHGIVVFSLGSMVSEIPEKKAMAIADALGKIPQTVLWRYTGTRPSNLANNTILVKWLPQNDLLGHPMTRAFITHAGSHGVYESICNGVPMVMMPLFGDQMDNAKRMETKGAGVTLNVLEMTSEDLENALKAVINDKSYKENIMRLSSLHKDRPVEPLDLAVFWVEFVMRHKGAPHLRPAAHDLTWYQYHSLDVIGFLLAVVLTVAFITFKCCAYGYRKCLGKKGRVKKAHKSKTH

INPUT_SMILES: COc1cc(/C=C/c2ccc(O)cc2)cc(OC)c1
IC50: > 100 µM

###

Target: UGT1A6 (Homo sapiens)
Assay: UGT1A6 inhibition in HLM, serotonin glucuronidation
Format: in vitro ADME
Settings: Rough IC50, initial screening; HLM; serotonin glucuronide formation; mean ± standard error
pIC50: −log10 of the molar value.
MEASUREMENT_NAME: pIC50

INPUT_SMILES: COc1cc(/C=C/c2ccc(O)cc2)cc(OC)c1
MEASUREMENT_NAME: pIC50
MEASURED_NUMBER: 4.57
